Kindly supply the reported IC50 values for the records listed here.
Target: FAAH (Homo sapiens)
Sequence (O00519 1-579): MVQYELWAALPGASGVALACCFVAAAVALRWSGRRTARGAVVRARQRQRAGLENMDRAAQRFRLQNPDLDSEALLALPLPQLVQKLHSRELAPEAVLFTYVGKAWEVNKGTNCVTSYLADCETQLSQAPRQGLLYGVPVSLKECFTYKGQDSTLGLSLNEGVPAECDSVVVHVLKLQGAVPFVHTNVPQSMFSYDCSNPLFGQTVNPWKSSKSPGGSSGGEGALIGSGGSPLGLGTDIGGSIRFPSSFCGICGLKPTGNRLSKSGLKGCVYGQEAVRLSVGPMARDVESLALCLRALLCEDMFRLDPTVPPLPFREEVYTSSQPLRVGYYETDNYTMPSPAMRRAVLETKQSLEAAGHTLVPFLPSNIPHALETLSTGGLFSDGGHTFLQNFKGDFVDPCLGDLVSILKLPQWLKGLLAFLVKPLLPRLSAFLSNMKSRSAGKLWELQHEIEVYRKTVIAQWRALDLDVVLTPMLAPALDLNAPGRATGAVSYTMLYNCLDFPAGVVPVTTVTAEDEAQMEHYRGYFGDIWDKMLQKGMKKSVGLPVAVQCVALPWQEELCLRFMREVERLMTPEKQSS
Assay: Human FAAH assay (Assay Method 1), 3H-anandamide hydrolysis in cell homogenate
Note: unit nM is implicit; provide only the numeric part.

Asked: Which value of IC50 has been reported for N#Cc1ccc([C@@H](N)CNc2cc(-c3ccc(C(F)(F)F)c(Cl)c3)ncn2)cc1 [Example 34] in the records?
Given back: 77

Asked: Please answer likewise for N[C@H](CNc1cc(-c2ccc(C(F)(F)F)c(Cl)c2)ncn1)c1ccc(F)c(Cl)c1 [Example 46]
Given back: 3000

Asked: Please answer likewise for N[C@@H](CNc1cc(-c2ccc(Cl)c(Cl)c2)ncn1)c1ccccc1 [Example 16]
Given back: 90

Asked: Please answer likewise for N[C@H](CNc1cc(-c2ccc(C(F)(F)F)c(Cl)c2)ncn1)c1ccc(F)cc1 [Example 28]
Given back: 600

----------
Biological target: Rat FAAH-1 (Rattus norvegicus, UniProt P97612)
Sequence (P97612 whole entry): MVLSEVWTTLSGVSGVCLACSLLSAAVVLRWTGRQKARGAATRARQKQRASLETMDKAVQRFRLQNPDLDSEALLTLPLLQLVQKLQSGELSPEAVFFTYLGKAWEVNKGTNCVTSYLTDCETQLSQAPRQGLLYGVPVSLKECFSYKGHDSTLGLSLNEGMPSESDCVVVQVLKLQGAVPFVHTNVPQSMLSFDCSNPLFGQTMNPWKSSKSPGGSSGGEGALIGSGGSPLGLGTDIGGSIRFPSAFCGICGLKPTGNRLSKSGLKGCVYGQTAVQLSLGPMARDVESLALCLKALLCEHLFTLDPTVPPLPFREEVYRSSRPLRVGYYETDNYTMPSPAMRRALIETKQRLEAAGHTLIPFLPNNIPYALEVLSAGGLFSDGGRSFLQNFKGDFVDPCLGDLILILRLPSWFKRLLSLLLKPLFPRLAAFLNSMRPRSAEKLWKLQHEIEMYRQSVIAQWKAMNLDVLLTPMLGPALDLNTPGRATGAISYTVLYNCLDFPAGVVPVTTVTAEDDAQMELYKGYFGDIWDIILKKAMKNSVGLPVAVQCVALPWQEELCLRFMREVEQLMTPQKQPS
Assay: Rat FAAH-1 assay (Assay Method 2), 3H-anandamide hydrolysis in cell homogenate
Structures can show the parent of a compound that is named as a salt.
measurementType: pIC50
Hey, just a heads up that pIC50 is the negative log base 10 of the concentration in molar.

Asked: Which value of pIC50 has been reported for N[C@@H](CNc1cc(-c2ccc(SC(F)(F)F)cc2)ncn1)c1ccccc1 in the records?
Given back: 6.77

Asked: Please answer likewise for N[C@@H](CNc1cc(-c2ccc(C(F)(F)F)c(Cl)c2)ncn1)c1ccc(Cl)cc1 [Example 39, trifluoroacetic acid salt]
Given back: 7.40

Asked: Please answer likewise for N#Cc1ccc([C@@H](N)CNc2cc(-c3ccc(C(F)(F)F)c(Cl)c3)ncn2)cc1F
Given back: 6.62

Asked: Please answer likewise for N[C@H](CNc1cc(-c2ccc(C(F)(F)F)c(Cl)c2)ncn1)c1cccc(F)c1 [Example 36, trifluoroacetic acid salt]
Given back: 5.59

Asked: Please answer likewise for N#Cc1cccc([C@H](N)CNc2cc(-c3ccc(C(F)(F)F)c(Cl)c3)ncn2)c1
Given back: 5.52

Asked: Please answer likewise for N[C@@H](CNc1cc(-c2ccc(C(F)(F)F)c(Cl)c2)ncn1)c1ccc(F)cc1
Given back: 7.22

Asked: Please answer likewise for CC(C)(C)OC(=O)N[C@@H](CNc1cc(-c2ccc(C(F)(F)F)c(Cl)c2)ncn1)c1ccccc1
Given back: 5.10

Asked: Please answer likewise for CCOc1ccc(-c2cc(NC[C@H](N)c3ccccc3)ncn2)cc1C(F)(F)F
Given back: 7.08

Asked: Please answer likewise for N[C@H](CNc1cc(-c2ccc(C(F)(F)F)c(Cl)c2)ncn1)c1ccc(F)c(Cl)c1
Given back: 5.52

Asked: Please answer likewise for N[C@@H](CNc1cc(-c2ccc(C(F)(F)F)cc2)ncn1)c1ccccc1
Given back: 6.00

Asked: Please answer likewise for N[C@H](CNc1cc(-c2ccc(C(F)(F)F)c(Cl)c2)ncn1)c1ccc(F)cc1
Given back: 6.05

Asked: Please answer likewise for N#Cc1cc([C@@H](N)CNc2cc(-c3ccc(C(F)(F)F)c(Cl)c3)ncn2)ccc1F
Given back: 6.52

Asked: Please answer likewise for N[C@@H](CNc1cc(-c2ccc(OC(F)(F)F)cc2)ncn1)c1ccccc1
Given back: 6.06

Asked: Please answer likewise for N[C@@H](CNc1cc(-c2ccc(C(F)(F)F)c(Cl)c2)ncn1)c1ccc2ccccc2c1
Given back: 7.40

Source: patent US8906914B2
